# PROCEDURE TEXT: soluble fraction after stress (log2 fold change); higher = more stays soluble; pooled small domains, quantitative proteomics
# APPLIED CONDITIONS: stress: 50 degC
Entries and their soluble fraction (log2)
Respond using a number only.

Would you please look over these solved cases?
{"columns": ["MACROMOLECULE SEQUENCE", "MEASURED QUANTITY", "MEASUREMENT"],
 "data": [
  ["HMNPSFTMGTRIKEYIDAHYLEDLKLADIAEALHINLYYLSHTFKDLTGSSPMQYIIRRRIEE", "soluble fraction (log2)", -0.778],
  ["HMNMVEESVKKSSQWAVFEPNTISTWVKIQAMIENYLYQKWKEGALAGAKPEHAFFVKVGLGETM", "soluble fraction (log2)", 0.163],
  ["HMTEKSTRSVPQEHEGKRLDVAAALLFPVYSRSELARRIDAGYLLLNGKGSTPKTKVHELDLIELLEV", "soluble fraction (log2)", -0.341],
  ["HMLSLTSRQQEIFDLIKGHIKKTGMPPTRSEIALHFGFRSANSAEEHLRALARKGFIELIPGTSRGIKLIE", "soluble fraction (log2)", -0.892],
  ["HMTVPDVKGMGARDAVFLLETLGFKVRINGIGQVYEQSIDPGKSYSKGEFISLRL", "soluble fraction (log2)", -0.51],
  ["HMSFMFEISVIRSQYNMQDPESKTGFYNAIAKKLLEFPEKLERDNYTEAVAREYMIPETDLKNLVNSMGG", "soluble fraction (log2)", -2.17],
  ["HMHGQGTYTSPDGTKYVGDWQDEKMHGQGTYTYPDGMKFVGEFKDNKPWNGTGYDKYGNVKATFSNGVGKS", "soluble fraction (log2)", 0.066],
  ["HMENKTGEVTVREDSALTLRQGPGTNYEKVGQAYRGDRVDVLEEQNGWYKVKTYDGKEAWASSSYISIV", "soluble fraction (log2)", 0.454]
]}

Name the recorded soluble fraction (log2) for `HMNILKAPMPGLILDVIVKESDLVKKGDPVIILEAMKMENILSSPVDGIVKEIKVNPQQTVEKNNTLIKFE` .
-0.0546

How about this sequence: `HMDSVTVPDISGYSPKAAEDSINNAGLKINEQGLSGSGDGQVVERTSPSAGSKVKKGDSVTVYYSKA`
0.00106

Also check `HMGDAVYSKVKDLVNTYNALAKQTGKSDLVSISQSRTWMVNDTKAHEVQWNKIGITIEDDQTLTI`
0.179

Same question for `HMLTWNQLGLITKPVVFLDGTGYYARLFEAFEHMISTGFVKENYRAMMNRATSVEEAVRIASSPAPKVD` please.
-0.0676

`HMEDELFSVARAAFPEYASKIHMNYGSTVQSIARQSGVLTVSETKQLNENQQISYLEYSNGAVVLALA` ?
-0.0402

Next record, please: `HMKAETILAIPENQPERLFPNNEDEARKIYRDLAREWHTDRNKSPKAQDVFSHLSKLYDIVIDRIKNKTWT`
0.152

And the next one, `HMLPAGAAAPLEDGSAPEGYTVKGNADSGLYHEPDGRWYDATVAEFWFKTAADAEAAGFRKAGS` ?
0.121

Also need `HMTNIDRLIGQTAIVKETINNKKEQGVVRINGMDWTARTEEIDEVILKGKPVEILDIQGIKLIVRKK` , thanks.
-0.153

Same question, `HMLMYAQDEKEEASNNIPYRLLHMSFTKEQKAELQRAMDVRVPKDIILSYFYPDTPVARMMEIRRQYESA` this time
-0.472

Now try `HMDRMFQPETWSKIYQWVMNDPQVPDKEDVLALIRRHFGNFEKLIKLLHYLDGGKPYAYLSEH` .
-0.115

###

# PROCEDURE TEXT: soluble fraction after stress (log2 fold change); higher = more stays soluble; pooled small domains, quantitative proteomics
# APPLIED CONDITIONS: stress: 50 degC
Mark F for soluble fraction (log2) values under -0.6, and T for everything at or above.

Worked examples, 5 sequences total:
{"columns": ["MACROMOLECULE SEQUENCE", "CLASS"],
 "data": [
  ["HMPTNSDRLIGSDGVVSSKIDNLQGTGKVYISGLTWSARTIDGSEAEEGDIVTVEKIEGATLYVTKR", "T"],
  ["HMRNKTVKEVLDYIEKNSEFIFFYYSKAIDTKRIVSLSVKDQPITVILDQLFKNTDVLYEIKDRQISLKRE", "T"],
  ["HMGISEKVINIIETYTMIARKKYPSVKSLAEHFNVSERTVHRYLEIIKMIDVVDYDREKKGYFFPYGDR", "F"],
  ["HMTSPNPLIRSTTPGLETNKKGGIIVDENEMSTRENVFAGGDAVTGAATVILAMGAGKKAAAAIDAKLQN", "T"],
  ["HMKRLPAQMGGGDGVLRVPGLNNFVYVTIADKTLPAFNNRVPPKKGLRIWVGYSPEEPNLFQVLSTRTD", "T"]
]}

Reported soluble fraction (log2) reaches at least -0.6 for `HMGRSARVQQAVHQAVRALLEENDGERSALSVPLVAERAGVNSSTIYRRWGDLPRLLAAVASN` ?
T

Consider next the sequence `HMGSPVTAVMNRVLNETERQIVTLHVISGFKHREIAELLEKPVGTVLWTYNNALGKMRKAMQRE` in the same way.
F

Same thing, different sequence: `HMFDTVFIVRKTSDKPLDGLRTYLNSIGDSLVIGEDDEAFKVHVHTNHPGKVLEEAITYGALQTVKIENMR`
F

Same read-out for `HMDSNISVSEALEMVDKGSVKEIIVEGEKLYITNQDGKQYTSSKEVGVSLIELMKDSGIDPIKSDVNIIVK` ?
T

Now consider `HMTRHIQVNDSIASTPIEDVYFSTRTYNALLNNGISVIGDLSKYTHDDLYASFQGLGRAGVLEIEAYLRQD` and answer again.
F

Same thing, different sequence: `HMPGEATVPSVIGMTKAEAKAKLQASGFELGYSEFVASDKPKGEIVEQDPGAGETAKGGTEVNVKISDGS`
T

Follow-up entry: `HMSKLQETEIPVALEVEKIPGLSNELKQKLLKIKPQTIGQASRISGITPAAISILMIYIKKNESISAVK`
F

Query `HMPDLSMLDEVLDEYRSQAGSLVTVLQKAQDLYGYLPLTILRHIAEEMNIKPAQVYGVATFYTQFRL` next
T

Now this one: `HMESRDRVRQASAAGYRFMSTMAGHEPGFEEASRALFAGDQTAFEARITAWPVDVQTHLKKILAEAFTT`
F

Field entry: `HMSTNYVQVLRAALNGVSGRKLAQQYRVSRDTVAILLRQAKIQGWQRAEDLENITEEDLVALLSG`
T

Next sequence: `HMHRTRNAERTRAAVLKAAAEVLAERGTGASLARIAEVAGVSKSGLLHHFANREQLIVALLED`
F

Then this sequence: `HMPSLSREREAAILEMIERRPSTAEDVASGLGLAVNEVIKLLDGTALRGSVETFQSGEEIYYTRKR`
T

###

# PROCEDURE TEXT: soluble fraction after stress (log2 fold change); higher = more stays soluble; pooled small domains, quantitative proteomics
# APPLIED CONDITIONS: stress: 50 degC
Think of -0.5 as a floor: if soluble fraction (log2) stands on it or above, it is 1 (yes); beneath it, 0 (no).

{"columns": ["MACROMOLECULE SEQUENCE", "CLASS"],
 "data": [
  ["HMIKRDLAFSEFIAEVKAGQVREVTIKGNSISGNLNDGREFNTYAPNDPNLVKTLTDQGVLIRAIPLE", "1 (yes)"],
  ["HMILYDDEYKGPRYRYGLHSRPLSPGAVPKGFIIHSDRPHPDFRHGTLDYPVKLPDDRAANFELIFIGEFD", "0 (no)"],
  ["HMLTTVAAQRAALHQEEDITKLREIILKLVPFWGLDGGAYADKETSIQLERQYRESFDQAVSAARRSGQA", "1 (yes)"],
  ["HMQISGIHLYERRITKDDEWAERKLSEISLAGSLVILILRNEHVVIPNGETVLKENDLLYISD", "0 (no)"],
  ["HMNSHKIIDRLNQMITEKDLSEEMPAITEAFKNNERSAEDLKKYVAENLSKKLNAEEREKFVSLILQYRN", "1 (yes)"],
  ["HMVAESGLPPAFRSTWRHIMQTRGAQLDVLAMRTGTDAASLQKQLHAMELGGWVRRMPGGWYVPLK", "0 (no)"]
]}

Determine whether measured soluble fraction (log2) meets or exceeds -0.5 for `HMAKKDVESTLGGRLRVARVRAGLTQVELARMLGMNSVSLSNVEGGRRGLSMKQLVRVAKILEVPVAYLLG`
0 (no)

What about this sequence? `HMSFSPYLVRVSITDLNIRKGPGTNYAKTGKFTGKGVFTIVEMQTGKGSDTGWGRLKSGAGWISLDYTEKI`
0 (no)

Now consider `HMELNFEGFYRFVRDELNVDLNAYKEKQLKRRIATVMKSSGALTLEDYSRLIANDEVIRNKFLDYITI` .
0 (no)

And `HMKININEASRYELMTIGGLDAGRADMLMQYRQKREISSADELKGINGFASYDTAKLQKSFEISP` ?
1 (yes)

Record: `HMRTYDPQAVELNNKALELINQGRLDSALLVYDQSIKTDKTYYFPHIGKSIIYMRKKDWNKAFEETQQAIK`
1 (yes)

Entry to check: `HMAAEELTVDKILTAQSFGVTAEAILAKVNDPANTVATLTQADVDRLRAAGVPEGVVTALQARAPQ`
1 (yes)

Input `HMERPSLDQVLAHAKALGIAPARFVAYADGRWGTGWRLSPHGRARAWEELDRHRNDPLGYRDKLDVALQSG`
1 (yes)

Next sequence: `HMVKVEVKPNVLQWVIKRMDNFDRLKDQFPNIDKWINQESQPTLKQLEKLAKMTAVPLGYFFLPNPPEEK`
1 (yes)

Try the sequence `HMEPFEQLLDRITSQTGKEPEEVVARMNELITERFDGNIRPEAALVIVAKRDNIQFMDLLDQLKQALL`
0 (no)

# iterate: `HMNSILFAITKEGGVVYGGKPVGVNGVRPLVRRLLQSEEMPVILQVDEKADAGLVIRVIDESKLGGASKV`
1 (yes)

Field entry: `HMSMVGSVNKQGRPFALLRVDNLLYQVKVGDYLGQNYGRITQIDETQIALREIVQDAAGEWIERPGVLQL`
1 (yes)
